Consider the following sequences; for each one, report its protein stability index.
ASSAY PROTOCOL: protein stability index of a GFP-peptide fusion (yeast GPS) (PSI 1-4); higher = more stable; sorted into four equal gates, so the index is relative within each strain
MEASUREMENT SETUP: doa10∆
Reply with the value as a number alone.

Need protein stability index of TTLNEMFRYKTNLYKLK [PUP3] , thanks. 3.06

Another sequence: DELERILKELSNLETLY [RPB4] 3.21

Another sequence: PLLSNYASKINRAEGPE [RGR1] 2.88

Another sequence: VLSTFTAEFGKILAGLH [RPN10] 3.11

Another sequence: EKTYTKAPKIQRLVTPQ [RPS6A] 2.62

Another sequence: NQSFIQQKANLLSSSNF [COR1] 2.17

Another sequence: SLEGCVEMAWIMGFISY [FAS2] 1.97

Another sequence: LKNYVLNELHPTLPTNH [PRP8] 2.73

Another sequence: KNYTTETDNEMNGNGKP [SIR3] 3.24

Another sequence: NKTDAQAPTTGFSFGSQ [YJL041W/NSP1] 2.91

Another sequence: DGRSFDQFRDVEITFGK [RRP45] 3.27

Another sequence: FKKDLVIVLSNISHLLE [SWI1] 1.86

Another sequence: QWGKYQTFGVDILAKLF [SWI1] 2.25

Another sequence: KLSQYVQEMALGGPITK [FAS2] 2.6

Another sequence: AARDNKKTRIIPRHLQL [HTA1] 3.04

Another sequence: RLRQFNLQPISTPENVP [SMC4] 1.69

Another sequence: PKFDVGALMALHGEGSG [RPS1A] 2.01

Another sequence: QSVEEKVLEMKNLKDTA [YIL149C/MLP2] 2.81

Another sequence: TNVQRIAAYIRRHRNPD [SMC1] 3.1

Another sequence: YRRLFAKRLIHGTSTSA [CDC53] 1.44

Another sequence: EEVMRIALMGQDNKKIY [ESC2] 2.53

Another sequence: SNSMDRSSSASNEFVPN [SWI1] 2.75

Another sequence: SLTRDFEQCCKEKKELQ [YIL149C/MLP2] 2.87

Another sequence: IALRNGQSSVKHEDFVE [RPT5] 2.89

Another sequence: YGRDDMENIKKSIDSKT [ISW2] 2.87

Another sequence: FLLEKAGERKIPHDLNF [TAF14] 2.43

Another sequence: PERWLPLRDRSTYRPKK [SRP72] 3.29

Another sequence: VVIDAKDHLLGRLASTI [RPL16B] 1.33

Another sequence: LAYENKITDKEDLLHYI [POP4] 3.35

Another sequence: IVFHNEFSEHTFVERLP [DIS3] 2.43

----------
ASSAY PROTOCOL: protein stability index of a GFP-peptide fusion (yeast GPS) (PSI 1-4); higher = more stable; sorted into four equal gates, so the index is relative within each strain
MEASUREMENT SETUP: san1∆
Everything with protein stability index lower than 3 is no; everything else, including exactly 3, is yes.

Check if protein stability index >= 3 (inclusive). Item: KVISNPLLARKQFVVDV [RPS24A] no

Another sequence: YKHIDASGSINRKVLQA [RPS19A] no

Another sequence: QFKKLTHAQRTGLSQIP [PRP8] no

Another sequence: QNIAQSSNQSAPVETKK [HRT1] yes

Another sequence: KYLPHAILKLLENMPHP [PRP8] no

Another sequence: LLISYGVSIENENKVII [SRB4] yes

Another sequence: NRTMDGKPVSLPLLYNF [FAS1] no

----------
ASSAY PROTOCOL: protein stability index of a GFP-peptide fusion (yeast GPS) (PSI 1-4); higher = more stable; sorted into four equal gates, so the index is relative within each strain
MEASUREMENT SETUP: ubr1∆
VALUE KIND: protein stability index

Need protein stability index of EQILQWVTEVLGNDIPH [BRR2] , thanks. 3.19

Another sequence: TNLGQPHSLATKTTGKC [RPS2] 2.5

Another sequence: QKNFMDQFQWILRKPGK [RRI2] 2.49

Another sequence: SNQERCHDEGNDMLQRN [RRI1] 3.16

Another sequence: NYHPMNIDETSDEVSRG [SMC4] 3.14

Another sequence: LYGLNLTLRKAKAPSGL [FAS1] 2.42

Another sequence: KASKEIKKVICGAWEPA [SIR3] 2.67

Another sequence: KLHFKDTKPFLNKDSTN [NUT1] 2.6

Another sequence: NKVHETSSKSSSLSAII [YDL088C/ASM4] 2.8

Another sequence: NSKDHKKITLQLLDTSN [SIN4] 2.96

Another sequence: IPISSETTIDDLPISST [SMC1] 2.99

Another sequence: EYNKPNSEKFVFLLTTR [ISW2] 2.43

Another sequence: STLHMLGYTHIAINFTV [RPP1] 1.55

Another sequence: SSLFNNSTNSNTTKPAF [YJL041W/NSP1] 2.06

Another sequence: PKNLSTPSTSSNGEFIP [CSE2] 2.93

Another sequence: ILRSIPDKLLGVILMFA [COB] 1.52

Another sequence: NDQALIKVLLRQNRRPE [RET1] 2.77

Another sequence: FPQGLNIVMDSKQNGIE [SSN8] 2.61

Another sequence: GVSLLALWKEKKEKPRS [RPS23A] 2.94

Another sequence: FLGEQVNEPTKNEEAEI [RPN1] 3.56

Another sequence: DDIYDISLLKNRRKQSF [RPN4] 3.1

Another sequence: FANNHFLNSNAVVVGTG [COR1] 2.04

Another sequence: FIDSICKLFDKISFNLR [SRB8] 1.98

Another sequence: TAFKSSPFGGSSHAKGI [RPS23A] 2.29

Another sequence: LYQTYHVLVGDLIKFSA [FAS1] 2.31

Another sequence: SAEDQLYAITFRKGLGN [QCR2] 3.03

Another sequence: KCSATNRIIKADDHASV [RPS21A] 3.11

Another sequence: VVEKEKIESLAGGGESD [UBP6] 3.34

Another sequence: KILSILNRSHFATTKAE [ECM29] 2.19

Another sequence: TDLRFQSSAIGALQESV [HHT1] 1.32

Another sequence: QVLVCTATLAWGVNLPA [BRR2] 2.12

----------
ASSAY PROTOCOL: protein stability index of a GFP-peptide fusion (yeast GPS) (PSI 1-4); higher = more stable; sorted into four equal gates, so the index is relative within each strain
MEASUREMENT SETUP: ubr1∆
Consider the following sequences; for each one, report its protein stability index.
Reply with the value as a number alone.

Need protein stability index of NNTNNNNTNTGASGVDD [SWI1] , thanks. 3.3

Another sequence: QYYVTQHDKMVDKIFEK [SWI1] 2.84

Another sequence: DRETALDFIGRRGTALG [RPB2] 2.14

Another sequence: MSGAAAASAAGYDRHIT [SCL1] 2.94

Another sequence: PFSEGVTFSVMPPKKSW [SMC4] 2.57

Another sequence: NAVSFDTTFSDFKEVED [SRB4] 2.74

Another sequence: DPNNPVDFDGLDIKRVG [SNF12] 3.25

Another sequence: EMARTKKACIIFFDEID [RPT1] 2.56

Another sequence: NRQAAASVVPSASSLVI [RPL12A] 1.83

Another sequence: EYSYVDSNMDSISSVVS [RPN4] 3.05

Another sequence: DKLKVYKQAMNETSEQL [SNF5] 3.11

Another sequence: APPQTRKFQPPPGFKRK [SMB1] 3.28

Another sequence: SHIESDSTSHNNGSSDK [MED1] 3.01

Another sequence: LLTKNVSCYRPRRDGER [RPS6A] 3.4

Another sequence: FNKNLGKGPGCGFWQPA [PRP8] 3.54

----------
ASSAY PROTOCOL: protein stability index of a GFP-peptide fusion (yeast GPS) (PSI 1-4); higher = more stable; sorted into four equal gates, so the index is relative within each strain
MEASUREMENT SETUP: ubr1∆
VALUE KIND: protein stability index
Reply with the value as a number alone.

Need protein stability index of LAIADVETKLETKVDEL [DSN1] , thanks. 2.85

Another sequence: SYINVTFRAVVFKPFLG [RPC25] 1.94

Another sequence: LNVGNVLPLGSVPEGTI [RPL2A] 3.28

Another sequence: TTTKIIDSTDHIRKASS [LRP1] 2.32

Another sequence: IQNKKIQEQRVKDKQSK [RPN8] 2.92

Another sequence: SLDTSASTINGASIIQV [YML103C/NUP188] 1.14

Another sequence: QITPTVPHSHPSDMVIP [SNF12] 2.59

Another sequence: GELDVLQIESVTKETVH [PRP8] 2.76

Another sequence: NFGNNGAGGLNPFTSAT [YOR098C/NUP1] 3.04

Another sequence: ITSFDQDVDDAHAIDQM [POP8] 1.08

Another sequence: IMQEAGLRAVRKNRYVI [RPT3] 3.29

Another sequence: RDHKSYSQSPPRSPGRS [SMC4] 2.87

Another sequence: GIVSVSDPQMKVFDTLT [RPN1] 2.82

Another sequence: NVLNRIQELEDQRDELL [ITC1] 3.56

Another sequence: SSNISPEQVYSLLLTNV [ARP7] 2.46

Another sequence: MNGRSLTYAQQQLNKQR [SNF6] 3.23

Another sequence: ALVFAALEHLKNLSLLA [SRP68] 2.92

Another sequence: KLITTYISLLKLQGLYE [YDL116W/NUP84] 1.72

Another sequence: RTSATREDTPLSQNEST [ISW2] 2.96

Another sequence: PPLTYKNDTKILVLALE [PRP8] 2.04

Another sequence: VQYLRSVQDLGGSATAR [YML031W/NDC1] 1.57

Another sequence: SQTNNSFLSGVKSLLSE [SIR4] 3.1

Another sequence: SFILYYRRALQSSESFD [YML103C/NUP188] 2.27

Another sequence: DTPTSGKHNLTIWCVCD [BRR2] 3.08

Another sequence: EYKVITSLQGTYEAIEI [YMR129W/POM152] 3.17

Another sequence: FKKLTKDIFRYMQRTVE [RPB2] 1.36

Another sequence: EINSVGNPGLPQYQYQR [ITC1] 3.16

Another sequence: LKEYQSKIIVFPRNGKA [RPL13A] 3

Another sequence: LNHRNKNQHRAASWYGS [RMP1] 3.06

Another sequence: RKVSGPRALQPSQFGML [RET1] 2.56
